Data provenance: patent US20100310640A1

# TESTED ON: T1, HLA-DR DRB1*0405 (human)
# T1 chain 1: not shown
# T1 chain 2: not shown
# METHOD SUMMARY: radioligand inhibition, purified HLA-DR
# CONDITION SUMMARY: remark: other sources report otherwise
MEASUREMENT TYPE: pIC50
Please express pIC50 as -log10 of the molar concentration.

Sample answers from the record:
HNQVRQVPLQRLRIV [Her/neu.88]
5.89
SITVSASGTSPGLSA [CEA.671 peptide 9919.0143]
5.45
APTISPLNTSYRSGE [CEA.239 peptide 9919.0121]
5.22
VCGIQNSVSANRSDP [CEA.570 peptide 9012.0135]
5.81
TTPVTGASPGGLREL [Her2/neu.126]
4.88

For the next question, use this binder.
Please look up its pIC50: TEILKGGVLIQRNPQ [Her2/neu.146]
6.12
